system: NCI-H295R; assay: area under concentration-response curve (viability) (AUC (a.u.)); higher = less active; settings: 48 h
Use YES when the recorded area under concentration-response curve is no lower than 500; use NO when it is lower.

O=C(CCNC(=O)c1ccc(OC(F)(F)F)cc1)N[C@@H]1CCCc2ccccc21 = NO
CC\12CCC(=O)\C=C1CCC3C2CCC4(C)C3CCC4(O)C#C (stereo unspecified) = NO
NCC1(CC(=O)O)CCCCC1 = NO
NC/1=N/C2=C(N=C[N]2[C@H]3C[C@H](O)[C@@H](CO)C3=C)C(=O)N1 = YES
CC(C)[C@H](O)C(=O)N[C@@H](C)C(=O)N[C@@H]1C(=O)N(C)CCc2ccccc21 = YES

Ask | Check the entry Cc1ccc(Nc2ncc3c(n2)N(C)C(=O)N(c2cc(NC(=O)c4cccc(C(F)(F)F)c4)ccc2C)C3)cn1 : does area under concentration-response curve equal or exceed 500?
Reply | YES

Ask | Check the entry CNCCn1c(=O)c2cc(OC)c(OC)cc2c2cnc3cc4c(cc3c21)OCO4 : does area under concentration-response curve equal or exceed 500?
Reply | YES

Ask | Check the entry OCCn1cc(-c2ccc3c(c2)CC/C3=N\O)c(-c2ccncc2)n1 : does area under concentration-response curve equal or exceed 500?
Reply | YES

Ask | Check the entry COc1ccc2cc([C@H](C)C(=O)O)ccc2c1 : does area under concentration-response curve equal or exceed 500?
Reply | YES

Ask | Check the entry COc1cc2c(Nc3ccc(Br)cc3F)ncnc2cc1OCC1CCN(C)CC1 : does area under concentration-response curve equal or exceed 500?
Reply | NO

====

system: CU-ACC2; test: AC50 viability; higher = less potent; conditions: 48 h
Please go through the items and note down their AC50 viability.
Numbers only, in µM.

Previously resolved entries follow.
CCC[C@H](Nc1nc(-c2ccc(NC(=O)NCC)c(OC)c2)ncc1C)c1cccnc1 = 0.372
C=CC(=O)Nc1cccc(Nc2nc(Nc3ccc(OCCOC)cc3)ncc2F)c1 = 20.9
Nc1nc(Nc2ccc3c(c2)CC[C@@H](N2CCCC2)CC3)nn1-c1cc2c(nn1)-c1ccccc1CCC2 = 23.5

Next molecule, AC50 viability to be filled in.
Ask | Quick one: AC50 viability of COc1cc(OCc2cccc(-c3ccccc3)c2C)cc(OC)c1CN1CCCC[C@H]1C(=O)O ?
Reply | 20.9

====

Please go through the items and note down their area under concentration-response curve.
test system: CU-ACC2; assay: area under concentration-response curve (viability) (AUC (a.u.)); higher = less active; settings: 48 h
One number for each entry.

I would be grateful if you could provide area under concentration-response curve for each of the following entries.
1. Nc1ccccc1NC(=O)c1ccc(CNc2nccc(-c3cccnc3)n2)cc1
2. C[C@@]12O[C@@H](C[C@]1(O)CO)n1c3ccccc3c3c4c(c5c6ccccc6n2c5c31)CNC4=O
3. COc1cc2c(Nc3ccc(NC(=O)c4ccccc4)cc3)ncnc2cc1OCCCN1CCOCC1
4. CC1=C(/C=C/C(C)=C/C=C/C(C)=C/C(=O)Nc2ccc(O)cc2)C(C)(C)CCC1
5. CCOC(=O)[C@H](CCc1ccccc1)N[C@H]1CS[C@H](c2cccs2)CN(CC(=O)O)C1=O.Cl
6. O=C(c1ccc(F)cc1)N1CCC[C@H](c2nc(-c3ccc(F)cc3)no2)C1
7. C#Cc1cccc(Nc2ncnc3cc(OC)c(OCCCCCCC(=O)NO)cc23)c1

Reply |
1: 445; 2: 346; 3: 566; 4: 170; 5: 584; 6: 624; 7: 450

Ask | Quick one: area under concentration-response curve of CC(C)c1cnn2c(NCc3ccccc3)cc(N[C@@H](CO)[C@H](O)CO)nc12 ?
Reply | 326

====

test system: CU-ACC1; test: AC50 viability; higher = less potent; conditions: 48 h
Would you mind classing the entries by AC50 viability? Ranges: bottom bin (below 6 µM), middle bin (6 µM to below 20 µM), top bin (20 µM or more)

CN1CCN(c2cc(C(=O)Nc3ccc4c(c3)-c3c(c(C(N)=O)nn3-c3ccc(F)cc3)CC4)c(Cl)cn2)CC1 = middle bin

Ask | Please classify: CC[C@@]1(O)C(=O)OCC/2=C1/C=C3\N(CC4=CC5=CC(=CC=C5N=C34)O)C2=O
Reply | bottom bin

Ask | Please classify: c1cncc(CN2CCC(n3ncc4c(N5CCOCC5)nc(-c5ccc6[nH]ccc6c5)nc43)CC2)c1
Reply | top bin

Ask | Please classify: FC1=CC=C(SC/2=N/N3\C=N/C(=O)/C(=C3/C=C2)C4=C(Cl)C=CC=C4Cl)C(=C1)F
Reply | bottom bin

====

system: CU-ACC2; experiment: area under concentration-response curve (viability) (AUC (a.u.)); higher = less active; conditions: 48 h
readout: area under concentration-response curve
Give bare numbers.

Previously resolved entries follow.
COCC(=O)NC/C=C/c1ccc2ncnc(Nc3ccc(Oc4ccc(C)nc4)c(C)c3)c2c1 = 613
COc1ccc(/C=C\c2cc(OC)c(OC)c(OC)c2)cc1O = 474
COc1ncc(-c2ccc3nccc(-c4ccnnc4)c3c2)cc1N[S+](=O)([O-])c1ccc(F)cc1F = 441

I would be grateful if you could provide area under concentration-response curve for each of the following entries.
1. Nc1ccc(/C=C/C(=O)NCc2cc3cc(-c4ccc(C(=O)N5CCC(F)(F)CC5)cc4)cc(-c4ccc(F)cc4)c3o2)cn1
2. CC1(C)Cc2c(sc(NC(=S)NC(=O)c3ccccc3)c2C(=O)O)CO1
3. Clc1cc2c(NC3CCCC3)nnc(-c3ccncc3)c2cc1Cl
4. COc1cc(F)c(F)c(Nc2ccc(I)cc2F)c1N[S+](=O)([O-])C1(C[C@H](O)CO)CC1
5. Cc1cc(F)c(C(=O)Nc2cccc(-c3nncn3C(C)C)n2)cc1-n1cnc(C2CC2)c1
6. C[C@]12CC[C@H]3[C@@H](CC[C@@]45O[C@@H]4\C(=C(/C[C@]35C)C#N)O)[C@@H]1CC[C@@H]2O
7. Cc1ccccc1C(C(=O)NC1CCCCC1)N(C(=O)Cn1ccnc1C)c1cccc(F)c1 (configuration not stated)
8. COc1cc(F)c(C(C)C)cc1-c1ccc(C(F)(F)F)cc1CN1C(=O)O[C@H](c2cc(C(F)(F)F)cc(C(F)(F)F)c2)[C@@H]1C

Reply |
[447, 586, 609, 476, 360, 590, 593, 505]

I would be grateful if you could provide area under concentration-response curve for each of the following entries.
1. O=C(Nc1ncc(-c2cc(C(F)F)nn2-c2c(Cl)cccc2Cl)s1)C1CC1
2. Cc1nn(C)c(COc2ccc(N3CCN([S+](=O)([O-])N(C)C)CC3)cc2)c1-c1cccc2c(CCCOc3cccc4ccccc34)c(C(=O)O)n(CCN3CCOCC3)c12
3. O=C(NCc1ccccc1)[C@H](Cc1ccccc1)NC(=O)[C@H]1O[C@@H]1C(=O)NCCc1ccc(O)cc1
4. Cc1nnn(C)c1-c1cnc2c3ccc(C(C)(C)O)cc3n([C@H](c3ccccc3)C3CCOCC3)c2c1
5. CC[C@H](NC(C)C)[C@H](O)C1=CC=C(O)C2=C1\C=C/C(=O)N2
6. O=C(O)c1ccc(CCCc2ccc(OCCc3ccc(F)cc3)cc2)o1

Reply |
465
580
557
482
650
616

====

Please go through the items and note down their log10 of AC50 viability.
test system: CU-ACC1; assay: AC50 viability; higher = less potent; conditions: 48 h
Scale: log10; quantity: AC50 viability; unit before log: µM

Previously resolved entries follow.
CC(C)C1NC(=O)C(NC(=O)C2=C3\N=C\4/C(=C(C)\C(=O)\C(=C4C(=O)NC5C(C)OC(=O)C(C(C)C)N(C)C(=O)CN(C)C(=O)C6CCCN6C(=O)C(NC5=O)C(C)C)N)OC3=C(C)C=C2)C(C)OC(=O)C(C(C)C)N(C)C(=O)CN(C)C(=O)C7CCCN7C1=O (stereo unspecified) = -1.29
COC(=O)N1CCN(Cc2cccc(NC(=O)Nc3ccc(C)nc3)c2F)CC1 = 1.87
CC(C)c1cc(C(=O)N2Cc3ccc(CN4CCN(C)CC4)cc3C2)c(O)cc1O = 0.37
CCCCCCCOc1ccc(CCC(N)(CO)CO)cc1C(F)(F)F = 1.17
Cc1cc(-c2ncc(CC(=O)Nc3ccc(-c4cnccn4)cn3)cc2C)ccn1 = 0.87

I would be grateful if you could provide log10 of AC50 viability for each of the following entries.
1. C[C@@H]1O[C@@H](O[C@H]2C[C@@H](O)[C@]3(CO)[C@H]4[C@H](O)C[C@]5(C)[C@H](CC[C@]5(O)[C@@H]4CC[C@]3(O)C2)C/6=C/C(=O)OC6)[C@H](O)[C@H](O)[C@H]1O
2. Cc1cccc(-c2n[nH]cc2-c2ccc(F)c(-c3cnn(CCO)c3)c2)n1
3. ClC1=C[NH]N=C1C\2NC(=N\C3=C2C(=O)CCC3)/NC4=NC5=CC=CC=C5O4 (stereo unspecified)
4. O=C(Nc1cc(C(F)(F)F)cc(C(F)(F)F)c1)c1cc(Cl)ccc1O
5. COc1cccc2cc(-c3nc([C@H]4CC[C@H](C(=O)O)CC4)n4ncnc(N)c34)[nH]c12
6. O=C(NOCCO)c1ccc2cncn2c1Nc1ccc(I)cc1F
7. CC(C)[C@@H](N(CCCN)C(=O)C1=CC=C(C)C=C1)C/2=N/C3=CC(=CC=C3C(=O)N2CC4=CC=CC=C4)Cl

Reply |
1. -1.58
2. 0.72
3. 1.62
4. 0.42
5. 0.62
6. 1.17
7. 1.32

I would be grateful if you could provide log10 of AC50 viability for each of the following entries.
1. CCC1=C2C=C(OC(=O)N3CCC(CC3)N4CCCCC4)C=CC2=NC\5=C1CN6C(=O)\C7=C(/C=C56)[C@@](O)(CC)C(=O)OC7
2. CCCCNc1ncc2c(-c3ccc(CN4CCN(C)CC4)cc3)cn([C@H]3CC[C@H](O)CC3)c2n1
3. COc1cc(F)ccc1-c1ncnc(Nc2cccc(C[S+](C)(=N)[O-])c2)n1 (stereo unspecified)
4. Cn1c(=O)c2c(ncn2CC2OCCO2)n(C)c1=O
5. CN(C)C(=O)C(CCN1CCC(O)(c2ccc(Cl)cc2)CC1)(c1ccccc1)c1ccccc1
6. C[C@@H]1C[C@@H]([C@H](O)CC2CC(=O)NC(=O)C2)C(=O)[C@@H](C)C1
7. Cc1ccc([S+](=O)([O-])Nc2cc(C(F)(F)F)ccc2C(=O)Nc2nc(-c3ccccc3)cs2)cc1
8. CN[C@@H]1CN(C[C@H]1OC)C2=NC3=C(C=C2)C(=O)C(=C\N3C4=NC=CS4)/C(O)=O

Reply |
[1.12, 1.22, 0.27, -2.63, 1.22, 0.02, 1.02, 1.01]
